System: MRSE
measurement-description: MIC, two-fold serial dilution method
Format: cell-based, Methicillin-resistant Staphylococcus epidermidis
// reported minimum inhibitory concentration per item
parameter: minimum inhibitory concentration (µg/mL)

1) C=CC1(C)CC(OC(=O)CSC(C)(C)CNC(=O)C2CCCCC2)C2(C)C(C)CCC3(CCC(=O)C32)C(C)C1O (stereo not shown) | 0.25
2) C=CC1(C)CC(OC(=O)CSC(C)(C)CNC(=O)C2CC2)C2(C)C(C)CCC3(CCC(=O)C32)C(C)C1O (stereo not shown) | 0.031
3) C=CC1(C)CC(OC(=O)CSC(C)(C)CNC(=O)C2CCCC2)C2(C)C(C)CCC3(CCC(=O)C32)C(C)C1O (stereo not shown) | 0.25
4) C=CC1(C)CC(OC(=O)CSC(C)(C)CNC(=O)C2CCC2)C2(C)C(C)CCC3(CCC(=O)C32)C(C)C1O (stereo not shown) | 0.031

----------
minimum inhibitory concentration reference
Tested on: S. dysgalactiae-2
measurement-description: MIC, two-fold serial dilution method
Format: cell-based, S. dysgalactiae equisimilis
measurement-setup: S. dysgalactiae-2
parameter: minimum inhibitory concentration (µg/mL)

1) C=CC1(C)CC(OC(=O)CSC(C)(C)CNC(=O)C2CCCCC2)C2(C)C(C)CCC3(CCC(=O)C32)C(C)C1O (stereo not shown) | 0.125
2) C=CC1(C)CC(OC(=O)CSC(C)(C)CNC(=O)C2CC2)C2(C)C(C)CCC3(CCC(=O)C32)C(C)C1O (stereo not shown) | 0.031
3) C=CC1(C)CC(OC(=O)CSC(C)(C)CNC(=O)C2CCCC2)C2(C)C(C)CCC3(CCC(=O)C32)C(C)C1O (stereo not shown) | 0.125
4) C=CC1(C)CC(OC(=O)CSC(C)(C)CNC(=O)C2CCC2)C2(C)C(C)CCC3(CCC(=O)C32)C(C)C1O (stereo not shown) | 0.031

----------
Test system: S. agalactiae-1
measurement-description: MIC, two-fold serial dilution method
Format: cell-based
measurement-setup: S. agalactiae-1
List of minimum inhibitory concentration values.
parameter: minimum inhibitory concentration (µg/mL)

1) C=CC1(C)CC(OC(=O)CSC(C)(C)CNC(=O)C2CCCCC2)C2(C)C(C)CCC3(CCC(=O)C32)C(C)C1O (stereo not shown) | 0.125
2) C=CC1(C)CC(OC(=O)CSC(C)(C)CNC(=O)C2CC2)C2(C)C(C)CCC3(CCC(=O)C32)C(C)C1O (stereo not shown) | 0.031
3) C=CC1(C)CC(OC(=O)CSC(C)(C)CNC(=O)C2CCC2)C2(C)C(C)CCC3(CCC(=O)C32)C(C)C1O (stereo not shown) | 0.031
4) C=CC1(C)CC(OC(=O)CSC(C)(C)CNC(=O)C2CCCC2)C2(C)C(C)CCC3(CCC(=O)C32)C(C)C1O (stereo not shown) | 0.125

----------
System: S. dysgalactiae-3
measurement-description: MIC, two-fold serial dilution method
Format: cell-based, S. dysgalactiae equisimilis
measurement-setup: S. dysgalactiae-3
parameter: minimum inhibitory concentration (µg/mL)

1) C=CC1(C)CC(OC(=O)CSC(C)(C)CNC(=O)C2CCC2)C2(C)C(C)CCC3(CCC(=O)C32)C(C)C1O (stereo not shown) [derivative 2] | 0.031
2) C=CC1(C)CC(OC(=O)CSC(C)(C)CNC(=O)C2CC2)C2(C)C(C)CCC3(CCC(=O)C32)C(C)C1O (stereo not shown) [derivative 1] | 0.031
3) C=CC1(C)CC(OC(=O)CSC(C)(C)CNC(=O)C2CCCC2)C2(C)C(C)CCC3(CCC(=O)C32)C(C)C1O (stereo not shown) [derivative 3] | 0.125
4) C=CC1(C)CC(OC(=O)CSC(C)(C)CNC(=O)C2CCCCC2)C2(C)C(C)CCC3(CCC(=O)C32)C(C)C1O (stereo not shown) [derivative 4] | 0.125
